Assay Text: Extracellular drug level in Sprague-Dawley rat hippocampus at 100 mg/kg, po after 4 hrs
Format: ADME, organism-based
Parameters: dose 100 mg/kg, route oral
Measurement Setup: hippocampus extracellular fluid, read-out: Drug uptake
Endpoint: concentration at 4 h (ng/mL)
Answer in ng/mL, number only, no unit symbol.

Entry Nc1ccc(Cl)cc1S(N)(=O)=O needs its concentration at 4 h filled in; supply it. 12000

* * *

Organism: Rattus norvegicus
Assay Text: Potentiation of AMPA receptor mediated KA-induced current in Sprague-Dawley rat primary cerebellar granule neurons at 200 uM
Endpoint: Activity
Remember to put the unit after the number in your answer.

Reference set, count: 5
{"Molecule": "Nc1ccc([N+](=O)[O-])cc1S(N)(=O)=O", "Value Measured": "-8%"}
{"Molecule": "Nc1cc(Cl)ccc1S(N)(=O)=O", "Value Measured": "8%"}
{"Molecule": "COc1ccc(S(N)(=O)=O)c(N)c1", "Value Measured": "-5%"}
{"Molecule": "Cc1cccc(S(N)(=O)=O)c1N", "Value Measured": "7%"}
{"Molecule": "CCNc1ccc(Cl)cc1S(N)(=O)=O", "Value Measured": "91%"}

Entry CCCNS(=O)(=O)c1cc(Cl)ccc1N needs its Activity filled in; supply it. 4%

Entry CCNS(=O)(=O)c1cc(Cl)ccc1N needs its Activity filled in; supply it. 12%

Entry Nc1ccc(Cl)cc1S(N)(=O)=O needs its Activity filled in; supply it. 23%

Entry CCCNc1ccc(Cl)cc1S(N)(=O)=O needs its Activity filled in; supply it. 80%

Entry Nc1cc(Cl)c(S(N)(=O)=O)cc1S(N)(=O)=O needs its Activity filled in; supply it. -6%

Entry Nc1cc(Cl)c(Cl)cc1S(N)(=O)=O needs its Activity filled in; supply it. 35%

Entry CC1Nc2ccc(Cl)cc2S(=O)(=O)N1 (racemic) needs its Activity filled in; supply it. 80%
